So I've got a bunch of compounds here, and I need their pest or weed control at 125 g/ha values.
Tested on: morningglory
Assay: Test C preemergence
Format: in vivo, Ipomoea coccinea
Conditions: Ipomoea, pre-emergence; 125 g ai/ha, preemergence; scale 0 (no effect) to 100 (complete control); read-out: Morningglory plant response rating
Answers are plain numbers, in %.

Use the examples below as a reference point.
smiles.data	endpoint.value
Clc1cnc(Oc2ccccc2-n2cc(Br)cn2)nc1	10
N#Cc1cccc(Oc2ncc(Cl)cn2)c1-n1cnc(C(F)(F)F)c1	100
FC(F)(F)COc1cnn(-c2ccccc2Oc2ncc(Cl)cn2)c1	35

Then this compound:
Lookup: pest or weed control at 125 g/ha for N#Cc1cccc(Oc2ncc(Cl)cn2)c1-n1cc(C(F)(F)F)cn1 ?
Found: 100
